Attribution: patent US9751867B2

- Tested on: NK Falkone corn seeds
- MEASUREMENT_PROTOCOL: Corn seed germination under cold stress (15° C.)
- Format: in vivo
- CONDITION_INFO: Zea mays; rate 50 μM; 15° C.; negative value = faster germination; control 0.5% DMSO in water; read-out: T50 (% vs control)
PROPERTY: change in vivo at 50 µM (%)

>>> value_measured("CC1=CC(O/C=C2/C(=O)NC3c4ccccc4CC23)N(C2CC2)C1=O (stereo not shown)")
-3.9
>>> value_measured("CC1=CC(O/C=C2/C(=O)NC3c4ccccc4CC23)N(CC(F)(F)F)C1=O (stereo not shown)")
-3.3
>>> value_measured("CON1C(=O)C(C)=CC1O/C=C1/C(=O)NC2c3ccccc3CC12 (stereo not shown)")
-3.8
>>> value_measured("CC1=CC(O/C=C2/C(=O)NC3c4ccccc4CC23)N(c2ccccc2)C1=O (stereo not shown)")
-6.2
